Target Entity: human TLR9 (Homo sapiens (Human), UniProt Q9NR96)
Sequence (Q9NR96 26-1032): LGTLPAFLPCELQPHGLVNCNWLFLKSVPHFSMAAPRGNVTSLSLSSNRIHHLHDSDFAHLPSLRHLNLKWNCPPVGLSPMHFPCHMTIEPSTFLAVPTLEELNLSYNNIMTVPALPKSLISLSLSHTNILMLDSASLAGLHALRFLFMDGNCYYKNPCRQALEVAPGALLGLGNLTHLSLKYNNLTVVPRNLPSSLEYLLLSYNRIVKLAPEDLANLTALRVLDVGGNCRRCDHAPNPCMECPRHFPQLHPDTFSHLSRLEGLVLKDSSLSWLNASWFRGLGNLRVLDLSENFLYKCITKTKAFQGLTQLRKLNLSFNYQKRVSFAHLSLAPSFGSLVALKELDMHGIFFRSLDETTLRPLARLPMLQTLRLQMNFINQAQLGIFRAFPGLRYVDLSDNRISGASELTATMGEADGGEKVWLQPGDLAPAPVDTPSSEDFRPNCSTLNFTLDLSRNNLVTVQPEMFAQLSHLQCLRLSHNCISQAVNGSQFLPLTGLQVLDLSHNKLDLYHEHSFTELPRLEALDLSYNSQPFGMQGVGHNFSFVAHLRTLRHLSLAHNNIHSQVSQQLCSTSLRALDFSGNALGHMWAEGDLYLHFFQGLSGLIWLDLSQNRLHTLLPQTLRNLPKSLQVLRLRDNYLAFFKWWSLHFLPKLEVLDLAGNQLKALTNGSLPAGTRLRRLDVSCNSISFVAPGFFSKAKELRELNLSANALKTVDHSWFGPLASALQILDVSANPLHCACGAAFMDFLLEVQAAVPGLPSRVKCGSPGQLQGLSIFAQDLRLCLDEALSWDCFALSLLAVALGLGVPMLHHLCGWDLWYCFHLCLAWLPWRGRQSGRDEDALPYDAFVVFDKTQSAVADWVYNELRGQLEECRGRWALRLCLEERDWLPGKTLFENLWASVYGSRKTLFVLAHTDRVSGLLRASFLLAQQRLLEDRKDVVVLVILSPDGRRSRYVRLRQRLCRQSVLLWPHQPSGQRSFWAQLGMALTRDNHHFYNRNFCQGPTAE
Assay Notes: TLR9 inhibition reporter assay (HEK-Blue SEAP);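 note: SEAP driven by IFN-β minimal promoter carrying five NF-κB and AP-1 sites, 22 h at 37 °C, compounds 0.05 nM–50 µM, inhibition scaled between agonist-plus-DMSO and reference-inhibitor wells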
Reported Conditions: read-out: TLR9 IC50; HEK-Blue cells overexpressing human TLR9, ODN2006 5 nM stimulation, SEAP reporter
pIC50: −log10 of the molar value.
Decision: pIC50 compared against 5; not below it gives 1 (yes), below it gives 0 (no).

Compound	Label
COc1cc(-c2[nH]c3cnc(C4CCN(C(=O)CN(C)C)CC4)c(C)c3c2C(C)C)cn2ncnc12	1 (yes)
COc1cc(-c2[nH]c3cnc(C4CCC(NCC5(C)COC5)CC4)c(C)c3c2C(C)C)cn2ncnc12 (stereo not shown) [Example 270]	1 (yes)
COc1cc(-c2[nH]c3cnc(N4CCN(CC(F)(F)F)CC4)c(F)c3c2C(C)C)cn2ncnc12	0 (no)
COc1cc(-c2[nH]c3cnc(C4CCN(C(=O)CN(C)C)CC4)cc3c2C(C)C)cn2ncnc12	1 (yes)
Cc1c(N2CCC(N3CCNC(=O)C3)CC2)ncc2[nH]c(-c3cc(C)c4ncnn4c3)c(C(C)C)c12	0 (no)
Cc1c(-c2[nH]c3cnc(C4CCC(NC(C)C)CC4)c(C)c3c2C(C)C)cn2ncnc2c1C (stereo not shown) [Example 61]	1 (yes)
COc1cc(-c2[nH]c3cnc(N4CCN(C5COC5)C[C@H]4C)c(F)c3c2C(C)C)cn2ncnc12	0 (no)
COc1cc(-c2[nH]c3cnc(N4CCN(CC5CC5)CC4)c(F)c3c2C(C)C)cn2ncnc12	1 (yes)
COc1cc(-c2[nH]c3cnc(N4CC5(CN(CC6(C)COC6)C5)C4)c(F)c3c2C(C)C)cn2ncnc12	1 (yes)
Cc1c(-c2[nH]c3cnc(C4CCC(NCC(C)(C)C)CC4)cc3c2C(C)C)cn2ncnc2c1C (stereo not shown) [Example 351]	1 (yes)
Cc1c(-c2[nH]c3cnc(C4CCC(NC(C)C)CC4)cc3c2C(C)C)cn2ncnc2c1C (stereo not shown) [Example 326]	1 (yes)
Cc1c(-c2[nH]c3cnc(N4CCN(CC(=O)N(C)C)CC4)c(F)c3c2C(C)C)cn2ncnc2c1C	0 (no)
COc1cc(-c2[nH]c3cnc(C4CCN(CC(N)=O)CC4)c(C)c3c2C(C)C)cn2ncnc12	1 (yes)
COc1cc(-c2[nH]c3cnc(C4CCC(NC(C)C)CC4)c(F)c3c2C(C)C)cn2ncnc12 (stereo not shown) [Example 159]	1 (yes)
COc1cc(-c2[nH]c3cnc(N4CCC(N5CCOCC5)CC4)c(C)c3c2C(C)C)cn2ncnc12	1 (yes)
Cc1cc(-c2[nH]c3cnc(C4CCC(NCC(C)(C)O)CC4)c(F)c3c2C(C)C)cn2ncnc12 (stereo not shown) [Example 164]	1 (yes)
Cc1cc(-c2[nH]c3cnc(C4CCN(CC(=O)N(C)C)CC4)c(F)c3c2C(C)C)cc(C)n1	1 (yes)
COc1cc(-c2[nH]c3cnc(N4CC5(CNC5)C4)c(F)c3c2C(C)C)cn2ncnc12	1 (yes)
COc1cc(-c2[nH]c3cnc(N4CCN(CC(=O)N(C)C)CC4)c(Cl)c3c2C(C)C)cn2ncnc12	1 (yes)
Cc1cc(-c2[nH]c3cnc(C4CCN(C(C)C)CC4)c(F)c3c2C(C)C)cn2ncnc12	1 (yes)
COc1cc(-c2[nH]c3cnc(C4CCC(NC[C@@H](F)C(C)(C)O)CC4)c(C)c3c2C(C)C)cn2ncnc12 (stereo partly shown) [Example 117]	1 (yes)
COc1cc(-c2[nH]c3cnc(C4CCC(N(CC#N)C5COC5)CC4)c(F)c3c2C(C)C)cn2ncnc12 (stereo not shown) [Example 115]	0 (no)

* * *

Target Entity: human TLR9 (Homo sapiens (Human))
Assay Notes: TLR9 inhibition reporter assay (HEK-Blue SEAP)
Reported Conditions: read-out: TLR9 IC50; HEK-Blue cells overexpressing human TLR9, ODN2006 5 nM stimulation, SEAP reporter
pIC50: −log10 of the molar value.
Observed Property: pIC50

Compound	Value Comparator	Value
COc1cc(-c2[nH]c3cnc(C4CCC(NCC(C)(C)O)CC4)c(F)c3c2C(C)C)cn2ncnc12 (stereo not drawn) [Example 74]	=	6.16
COc1cc(-c2[nH]c3cnc(N4CCN(CC(C)(C)O)CC4)c(F)c3c2C(C)C)cn2ncnc12 [Example 364]	=	5.06
COc1cc(-c2[nH]c3cnc(N4CCC(NC5(C)COC5)CC4)c(F)c3c2C(C)C)cn2ncnc12 [Example 188]	=	5.29
COc1cc(-c2[nH]c3cnc(C4CCC(NC5COC5)C4)cc3c2C(C)C)cn2ncnc12 (stereo not drawn) [Example 274]	=	6.19
COc1cc(-c2[nH]c3cnc(N4CCC(NCC(C)(C)O)CC4)c(F)c3c2C(C)C)cn2ncnc12 [Example 156]	=	5.19
COc1cc(-c2[nH]c3cnc(C4CCN(CC(F)(F)F)CC4)c(F)c3c2C(C)C)cn2ncnc12 [Example 127]	<	4.30

* * *

Target Entity: human TLR8 (Homo sapiens (Human), UniProt Q9NR97)
Sequence (Q9NR97 27-1041): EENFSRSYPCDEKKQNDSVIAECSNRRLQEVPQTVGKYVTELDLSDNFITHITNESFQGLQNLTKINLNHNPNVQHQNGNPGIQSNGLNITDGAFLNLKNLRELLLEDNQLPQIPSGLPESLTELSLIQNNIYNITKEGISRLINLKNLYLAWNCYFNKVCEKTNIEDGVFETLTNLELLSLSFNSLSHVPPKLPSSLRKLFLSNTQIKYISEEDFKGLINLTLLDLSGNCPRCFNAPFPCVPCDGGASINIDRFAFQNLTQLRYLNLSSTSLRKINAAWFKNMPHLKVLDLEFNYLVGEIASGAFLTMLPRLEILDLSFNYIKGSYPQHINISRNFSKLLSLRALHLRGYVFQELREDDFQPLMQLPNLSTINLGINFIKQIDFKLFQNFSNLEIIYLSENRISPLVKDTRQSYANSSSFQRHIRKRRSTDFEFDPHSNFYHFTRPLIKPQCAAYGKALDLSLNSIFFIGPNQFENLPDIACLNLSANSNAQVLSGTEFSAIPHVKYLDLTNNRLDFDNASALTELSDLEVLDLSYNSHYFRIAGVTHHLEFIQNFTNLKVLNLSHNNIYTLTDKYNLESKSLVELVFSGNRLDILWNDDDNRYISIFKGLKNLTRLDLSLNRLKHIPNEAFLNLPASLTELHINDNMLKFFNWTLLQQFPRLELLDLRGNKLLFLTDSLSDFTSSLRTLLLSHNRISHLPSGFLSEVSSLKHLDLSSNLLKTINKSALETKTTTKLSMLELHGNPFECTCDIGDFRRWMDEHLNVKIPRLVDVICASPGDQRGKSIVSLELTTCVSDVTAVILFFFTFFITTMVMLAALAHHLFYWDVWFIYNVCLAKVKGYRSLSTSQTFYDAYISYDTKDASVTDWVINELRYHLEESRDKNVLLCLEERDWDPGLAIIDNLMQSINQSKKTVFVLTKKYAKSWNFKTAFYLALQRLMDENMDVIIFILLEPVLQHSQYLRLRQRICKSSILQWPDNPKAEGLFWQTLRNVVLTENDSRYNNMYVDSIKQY
Assay Notes: TLR8 inhibition reporter assay (HEK-Blue SEAP);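 note: SEAP driven by IFN-β minimal promoter with five NF-κB and AP-1 sites, compounds tested 0.05 nM to 50 µM, 22 h incubation, inhibition relative to agonist plus DMSO wells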
Reported Conditions: read-out: TLR8 IC50; HEK-Blue cells overexpressing human TLR8, R848 15.9 μM stimulation, SEAP reporter
Note to self: IC50 under 1 nM means YES, ties and anything higher get NO.

Compound	Label
COc1cc(-c2[nH]c3cnc(N4CCN(CC(=O)N(C)C)CC4)c(Cl)c3c2C(C)C)cn2ncnc12	NO
COc1cc(-c2[nH]c3cnc(N4CCN(CC(=O)N5CCOCC5)C[C@H]4C)c(F)c3c2C(C)C)cn2ncnc12	NO
Cc1c(-c2[nH]c3cnc(N4CCN(CC5CCOCC5)CC4)c(F)c3c2C(C)C)cn2ncnc2c1C	YES
Cc1c(-c2[nH]c3cnc(N4CCN(C5CCOCC5)CC4)c(F)c3c2C(C)C)cn2ncnc2c1C	YES
Cc1cc(-c2[nH]c3cnc(C4CCC(N(C)C(C)C)CC4)c(F)c3c2C(C)C)cn2ncnc12 (stereo not shown) [Example 108]	NO
CNC(=O)CN1CCC(c2ncc3[nH]c(-c4cc(OC)c5ncnn5c4)c(C(C)C)c3c2F)CC1	NO
COc1cc(-c2[nH]c3cnc(C4CCC(NC(C)C)CC4)c(F)c3c2C(C)C)cn2ncnc12 (stereo not shown) [Example 73]	YES
COc1cc(-c2[nH]c3cnc(C4CCC(NCC5(C)COC5)C4)cc3c2C(C)C)cn2ncnc12 (stereo not shown) [Example 275]	NO
Cc1c(-c2[nH]c3cnc(C4CCNCC4)cc3c2C(C)C)cn2ncnc2c1C	NO
CCN(C)C1CCC(c2ncc3[nH]c(-c4cc(OC)c5ncnn5c4)c(C(C)C)c3c2C)CC1 (stereo not shown) [Example 268]	NO
CCN(C)C1CCN(c2ncc3[nH]c(-c4cc(C)c5ncnn5c4)c(C(C)C)c3c2F)CC1	YES
Cc1c(-c2[nH]c3cnc(N4CC5(CN(CC(C)C)C5)C4)c(F)c3c2C(C)C)cn2ncnc2c1C	NO
COc1cc(-c2[nH]c3cnc(N4CCC(NC5CCOCC5)CC4)cc3c2C(C)C)cn2ncnc12	YES
COc1cc(-c2[nH]c3cnc(N4CCN(C(=O)CN(C)C)CC4)c(C)c3c2C(C)C)cn2ncnc12	NO
COc1cc(-c2[nH]c3cnc(C4CCN(C(C)C)CC4)c(F)c3c2C(C)C)cn2ncnc12	NO
COc1cc(-c2[nH]c3cnc(C4CCC(NC[C@@H](F)C(C)(C)O)CC4)c(C)c3c2C(C)C)cn2ncnc12 (stereo partly shown) [Example 89]	NO
CCN(C)C1CCC(c2cc3c(C(C)C)c(-c4cc(OC)c5ncnn5c4)[nH]c3cn2)C1 (stereo not shown) [Example 249]	NO
Cc1c(-c2[nH]c3cnc(C4CCC(NCC5(C)COC5)CC4)c(F)c3c2C(C)C)cn2ncnc2c1C (stereo not shown) [Example 172]	YES
CNCC(=O)N1CCC(c2ncc3[nH]c(-c4cc(OC)c5ncnn5c4)c(C(C)C)c3c2F)CC1	NO

* * *

Target Entity: human TLR9 (Homo sapiens (Human))
Assay Notes: TLR9 inhibition reporter assay (HEK-Blue SEAP)
Reported Conditions: read-out: TLR9 IC50; HEK-Blue cells overexpressing human TLR9, ODN2006 5 nM stimulation, SEAP reporter
IC50: recorded values

Compound	Value Comparator	IC50 / µM
Cc1c(-c2[nH]c3cnc(N4CCN(C5CCOCC5)CC4)c(C)c3c2C(C)C)cn2ncnc2c1C	=	6.01
CCN(C)C1CCC(c2cc3c(C(C)C)c(-c4cc(OC)c5ncnn5c4)[nH]c3cn2)C1 (stereo not shown) [Example 177]	=	0.549
COc1cc(-c2[nH]c3cnc(C4CCC(NCC5(C)COC5)C4)cc3c2C(C)C)cn2ncnc12 (stereo not shown) [Example 276]	=	0.114
Cc1c(-c2[nH]c3cnc(C4CCC(NC56CC(C5)C6)CC4)c(F)c3c2C(C)C)cn2ncnc2c1C (stereo not shown) [Example 239]	=	15.9
COc1cc(-c2[nH]c3cnc(N4CCC(NC5CCOCC5)CC4)c(F)c3c2C(C)C)cn2ncnc12	=	2.34
Cc1c(-c2[nH]c3cnc(N4CCN(C5COC5)CC4)c(C)c3c2C(C)C)cn2ncnc2c1C	>	50
Cc1c(-c2[nH]c3cnc(C4CCC(NCC(C)(C)C)CC4)c(C)c3c2C(C)C)cn2ncnc2c1C (stereo not shown) [Example 247]	=	0.718
